- Tested on: Mus musculus
- Assay Details: Neurotoxicity in i.p. dosed Mus musculus (mouse) assessed as motor impairment measured at 4 hr by rotarod test
- Type: toxicity, organism-based
- Condition Set: in vivo, ip
Property: MTC (mg/kg)
Report the figure in mg/kg without appending any unit label.

Compound: COc1ccc(/C(C)=N/NC(=O)Nc2ccccc2Cl)cc1
System Under Test: Mus musculus
Unit Text: mg/kg
MTC: 300

Please report the recorded MTC for Cc1ccc(NC(=O)NN)cc1 .
300

Name the reported MTC value associated with the compound O=C1NC(=O)C(c2ccccc2)(c2ccccc2)N1 [PHENYTOIN]
100

For the compound shown here, NC(=O)N1c2ccccc2C=Cc2ccccc21 [CARBAMAZEPINE] , give the reported MTC.
300

---

- Test system: Mus musculus
- Assay Details: Anticonvulsant activity in Mus musculus (mouse) assessed as protection against 6 Hz psychomotor-induced clonic seizures at 100 mg/kg, ip measured at 2 hr relative to control
- Assay type: functional
- Condition Set: route intraperitoneal
Property: Activity
Answer format reminder: number followed by unit.

Solved entries:
Smiles Text: NNC(=O)Nc1ccccc1Cl
Activity: 100%

Smiles Text: Cc1ccc(NC(=O)N/N=C/c2cccc(O)c2)cc1
Activity: 25%

Smiles Text: O=C(N/N=C/c1ccc(O)cc1)Nc1ccccc1Cl
Activity: 50%

Smiles Text: COc1ccc(/C=N/NC(=O)Nc2ccccc2Cl)cc1OC
Activity: 25%

Then there is this compound:
Which Activity value belongs to Cc1ccc(NC(=O)NN)cc1 ?
25%
